Recorded Plant response rating, Ryegrass, It. values for a group of compounds are listed next.
- System: ryegrass, It. (Italian ryegrass, Lolium multiflorum)
- procedure-summary: Test A postemergence, ryegrass, It.
- Assay type: in vivo
- measurement-context: 125 g ai/ha, 0 to 100 scale
property-measured: Plant response rating, Ryegrass, It.

- compound: "O=C1NCC(Cc2ccccc2C(F)(F)F)C1C(=O)Nc1ccccc1C(F)(F)F (stereo not shown) [Compound 5]"
  property-measured: "Plant response rating, Ryegrass, It."
  measured-number: 0
- compound: "O=C1NCC(C#Cc2ccc(F)cc2)C1C(=O)Nc1cccc(F)c1F (stereo not shown) [Compound 16]"
  property-measured: "Plant response rating, Ryegrass, It."
  measured-number: 0
- compound: "O=C1NCC(Cc2ccc(C(F)(F)F)cc2)C1C(=O)Nc1ccccc1C(F)(F)F (stereo not shown) [Compound 6]"
  property-measured: "Plant response rating, Ryegrass, It."
  measured-number: 0
- compound: "O=C1NCC(/C=C/c2ccccc2)C1C(=O)Nc1cccc(F)c1F (stereo not shown) [Compound 33]"
  property-measured: "Plant response rating, Ryegrass, It."
  measured-number: 0
- compound: "O=C1NCC(C#Cc2ccc(F)cc2)C1C(=O)Nc1ccccc1F (stereo not shown) [Compound 19]"
  property-measured: "Plant response rating, Ryegrass, It."
  measured-number: 0
- compound: "O=C1NCC(C#Cc2ccc(F)cc2)C1C(=O)Nc1ccc(F)c(F)c1F (stereo not shown) [Compound 17]"
  property-measured: "Plant response rating, Ryegrass, It."
  measured-number: 0
- compound: "O=C1NCC(/C=C/c2ccccc2F)C1C(=O)Nc1cccc(F)c1F (stereo not shown) [Compound 28]"
  property-measured: "Plant response rating, Ryegrass, It."
  measured-number: 0
- compound: "O=C1NCC(C#Cc2cccc(Cl)c2)C1C(=O)Nc1ccc(F)c(F)c1F (stereo not shown) [Compound 26]"
  property-measured: "Plant response rating, Ryegrass, It."
  measured-number: 0
- compound: "O=C1NCC(/C=C/c2ccccc2F)C1C(=O)Nc1ccccc1F (stereo not shown) [Compound 34]"
  property-measured: "Plant response rating, Ryegrass, It."
  measured-number: 0
- compound: "O=C1NCC(Cc2cccc(F)c2F)C1C(=O)Nc1cccc(F)c1F (stereo not shown) [Compound 8]"
  property-measured: "Plant response rating, Ryegrass, It."
  measured-number: 0
- compound: "Cc1cccc(C#CC2CNC(=O)C2C(=O)Nc2ccc(F)c(F)c2F)c1 (stereo not shown) [Compound 23]"
  property-measured: "Plant response rating, Ryegrass, It."
  measured-number: 0
- compound: "O=C(Nc1cccc(C(F)(F)F)c1)C1CNC(=O)C1C(=O)Nc1cccc(F)c1F (stereo not shown) [Compound 18]"
  property-measured: "Plant response rating, Ryegrass, It."
  measured-number: 0
- compound: "O=C1NCC(/C=C/c2ccc(F)cc2)C1C(=O)Nc1ccccc1F (stereo not shown) [Compound 27]"
  property-measured: "Plant response rating, Ryegrass, It."
  measured-number: 0
- compound: "O=C1NCC(Cc2ccc(C(F)(F)F)cc2)C1C(=O)Nc1cccc(F)c1F (stereo not shown) [Compound 7]"
  property-measured: "Plant response rating, Ryegrass, It."
  measured-number: 0
- compound: "O=C1NCC(/C=C/c2ccc(F)cc2)C1C(=O)Nc1cccc(F)c1F (stereo not shown) [Compound 31]"
  property-measured: "Plant response rating, Ryegrass, It."
  measured-number: 0
- compound: "Cc1cccc(C#CC2CNC(=O)C2C(=O)Nc2ccccc2F)c1 (stereo not shown) [Compound 21]"
  property-measured: "Plant response rating, Ryegrass, It."
  measured-number: 0
- compound: "O=C(CCC1CNC(=O)C1C(=O)Nc1ccccc1F)Nc1ccc(F)cc1 (stereo not shown) [Compound 15]"
  property-measured: "Plant response rating, Ryegrass, It."
  measured-number: 0
- compound: "Cc1cccc(C#CC2CNC(=O)C2C(=O)Nc2cccc(F)c2F)c1 (stereo not shown) [Compound 22]"
  property-measured: "Plant response rating, Ryegrass, It."
  measured-number: 0
- compound: "O=C1NCC(CCc2ccccc2)C1C(=O)Nc1ccccc1F (stereo not shown) [Compound 20]"
  property-measured: "Plant response rating, Ryegrass, It."
  measured-number: 0

This collection of values is drawn from patent US10906873B2.
